- System: Mean Arterial Blood Pressure in Conscious Rats
- assay_overview: Effect on mean arterial blood pressure in conscious rats (oral)
- Assay type: in vivo, rat (male Sprague-Dawley)
- condition_summary: Rattus norvegicus, po, 10 mg/kg, maximal % decrease of mean blood pressure, read-out: Hypotensive effect R max
- Procedure: Male Sprague-Dawley rats, aged 9-11 weeks, were anesthetized with ether and a polyethylene cannula filled with heparin solution was inserted into the femoral artery of the rats to measure mean blood pressure. Mean blood pressure was measured with a pressure transducer and recorded on a polygraph. […] Oral hypotensive effects of each compound were expressed as the maximal decrease (R max), the half time (T 1/2) and the duration (Dur.). […]
Decision: inhibition in vivo at 10 mg/kg compared against 30%; not below it gives condition met, below it gives condition not met.

Would you say CCC(=CC(CNC(=O)c1ccc(C)nc1)=NO)C(C)[N+](=O)[O-] (stereo not drawn) [Example 35] shows inhibition in vivo at 10 mg/kg at minimum 30%? condition met

Would you say CCC(=CC(CNC(=O)c1ccncc1)=NO)C(C)[N+](=O)[O-] (stereo not drawn) [Example 29] shows inhibition in vivo at 10 mg/kg at minimum 30%? condition met

Would you say CC(C)C(=CC(CNC(=O)c1cccnc1)=NO)C(C)[N+](=O)[O-] (stereo not drawn) [Example 20] shows inhibition in vivo at 10 mg/kg at minimum 30%? condition not met

Would you say CCC(=CC(CNC(=O)c1cccnc1)=NO)C(C)[N+](=O)[O-] (stereo not drawn) [Example 6 A] shows inhibition in vivo at 10 mg/kg at minimum 30%? condition not met

Would you say CCC(=CC(CNC(=O)c1nc[nH]c1C)=NO)C(C)[N+](=O)[O-] (single isomer, unassigned) [Example 45 A] shows inhibition in vivo at 10 mg/kg at minimum 30%? condition met

Would you say CCC(=CC(CNC(=O)C(N)=O)=NO)C(C)[N+](=O)[O-] (stereo not drawn) [Example 40 A] shows inhibition in vivo at 10 mg/kg at minimum 30%? condition met
